- Test system: ASAU001 (laboratory strain of S. aureus, ATCC29213)
- assay-method-text: MIC broth microdilution, ASAU001
- Format: cell-based
- measurement-setup: Staphylococcus aureus, ATCC29213, read-out: MIC ASAU001
Some molecules, each annotated with its measured MIC.

{"molecule": "O=C(NO)[C@@H]1CCN1S(=O)(=O)c1ccc(C#Cc2ccc(CN3CCOCC3)cc2)cc1 [Example 62-11]", "MIC": "> 64 µg/mL"}
{"molecule": "C[C@@H](NC(=O)CNC1CC1)[C@H](NC(=O)c1ccc(C#CC#Cc2ccccc2)cc1)C(=O)NO [Example 85-2]", "MIC": "16 to 64 µg/mL"}
{"molecule": "C[C@@H](N)[C@H](NC(=O)c1ccc(/C=C/C#Cc2cccnc2)cc1)C(=O)NO [Example 114-9]", "MIC": "16 to 64 µg/mL"}
{"molecule": "CC(C)(N)[C@H](NC(=O)c1ccc(C#CC#Cc2cccs2)cc1)C(=O)NO [Example 88-13]", "MIC": "2 to 16 µg/mL"}
{"molecule": "CC(C)(N)[C@H](NC(=O)c1ccc(C#CC#Cc2ccc(N)cc2)cc1)C(=O)NO [Example 82-25]", "MIC": "16 to 64 µg/mL"}
{"molecule": "CC(C)(N)[C@H](NC(=O)c1ccc(C#CC#Cc2ccc(C(F)(F)F)cc2)cc1)C(=O)NO [Example 82-26]", "MIC": "2 to 16 µg/mL"}
{"molecule": "O=C(NC(C(=O)NO)C1CCOCC1)c1ccc(C#Cc2ccc(CN3CCOCC3)cc2)cc1 (stereo not shown) [Example 67-5]", "MIC": "> 64 µg/mL"}
{"molecule": "C[C@@H](N)[C@H](NC(=O)c1ccc(C#Cc2ccc(CNC(=N)N)cc2)cc1)C(=O)NO [Example 131-3]", "MIC": "16 to 64 µg/mL"}
{"molecule": "C[C@H](N)[C@H](NC(=O)c1ccc(C#Cc2ccc(CO)cc2)cc1)C(=O)NO [Example 133-4]", "MIC": "> 64 µg/mL"}
{"molecule": "O=C(CNC1CC1)NC[C@H](NC(=O)c1ccc(C#Cc2ccccc2)cc1)C(=O)NO [Example 132-1]", "MIC": "16 to 64 µg/mL"}
{"molecule": "C[C@@H](N)[C@H](NC(=O)c1ccc(C#CC#Cc2cnn(C)c2)cc1)C(=O)NO [Example 89-1]", "MIC": "16 to 64 µg/mL"}
{"molecule": "CC(C)(O)[C@H](NC(=O)c1ccc(C#CC#Cc2ccc(CO)cc2)cc1)C(=O)NO [Example 82-15]", "MIC": "16 to 64 µg/mL"}
{"molecule": "C[C@H](O)[C@H](NC(=O)c1ccc(C#C/C=C/c2ccc(CN3CCOCC3)cc2)cc1)C(=O)NO [Example 96-2]", "MIC": "16 to 64 µg/mL"}
{"molecule": "C[C@@H](O)[C@H](NC(=O)c1ccc(C#C/C=C/c2ccc(CN3CCOCC3)cc2)cc1)C(=O)NO [Example 96-1]", "MIC": "> 64 µg/mL"}
{"molecule": "CC(C)(O)[C@H](NC(=O)c1ccc(C#CC#CC2CC2)cc1)C(=O)NO [Example 91-6]", "MIC": "16 to 64 µg/mL"}
{"molecule": "CC(C)CC#CC#Cc1ccc(C(=O)N[C@H](C(=O)NO)C(C)(C)O)cc1 [Example 91-19]", "MIC": "16 to 64 µg/mL"}
{"molecule": "C[C@@H](N)[C@H](NC(=O)c1ccc(C#C/C=C/c2ccc(CNC3CC3)cc2)cc1)C(=O)NO [Example 102-2]", "MIC": "16 to 64 µg/mL"}
{"molecule": "C[C@@H](N)[C@H](NC(=O)c1ccc(C#CC#Cc2cccs2)cc1)C(=O)NO [Example 88-12]", "MIC": "2 to 16 µg/mL"}
{"molecule": "C[C@@H](O)[C@H](NC(=O)c1ccc(C#C/C=C/c2ccc(CO)cc2)cc1)C(=O)NO [Example 101-1]", "MIC": "16 to 64 µg/mL"}
{"molecule": "C[C@@H](N)[C@H](NC(=O)c1ccc(C#Cc2ccc(CNCCC#N)cc2)cc1)C(=O)NO [Example 118-8]", "MIC": "16 to 64 µg/mL"}
{"molecule": "CC(=O)NC[C@H](NC(=O)c1ccc(/C=C/C#Cc2ccc(CN3CCOCC3)cc2)cc1)C(=O)NO [Example 111-3]", "MIC": "> 64 µg/mL"}
{"molecule": "CCOCc1ccc(C#Cc2ccc(C(=O)NC(C(=O)NO)C(C)(C)N)cc2)cc1 (stereo not shown) [Compound 126-2]", "MIC": "16 to 64 µg/mL"}
{"molecule": "NC[C@H](NC(=O)c1ccc(C#C/C=C/c2ccc(CN3CCOCC3)cc2)cc1)C(=O)NO [Example 98-1]", "MIC": "16 to 64 µg/mL"}
{"molecule": "C[C@H](O)[C@H](NC(=O)c1ccc(/C=C/C#Cc2ccc(CNC3CC3)cc2)cc1)C(=O)NO [Example 113-4]", "MIC": "> 64 µg/mL"}
{"molecule": "O=C(N[C@H](C(=O)NO)c1cccs1)c1ccc(C#Cc2ccc(CN3CCOCC3)cc2)cc1 [Example 67-7]", "MIC": "> 64 µg/mL"}
{"molecule": "NCC(=O)NCc1ccc(C#Cc2ccc(C(=O)N[C@@H](CN)C(=O)NO)cc2)cc1 [Example 116-1]", "MIC": "16 to 64 µg/mL"}
{"molecule": "O=C(NC(C(=O)NO)C1(O)CC1)c1ccc(C#CC#CC2CC2)cc1 (stereo not shown) [Example 94-1]", "MIC": "16 to 64 µg/mL"}
{"molecule": "CC(C)(O)[C@H](NC(=O)c1ccc(C#C/C=C/c2ccc(CNC3CC3)cc2)cc1)C(=O)NO [Example 102-5]", "MIC": "> 64 µg/mL"}
{"molecule": "CC(C)(N)[C@@H](NC(=O)c1ccc(C#Cc2ccc(CNC3CC3)cc2)cc1)C(=O)NO [Compound 121-2]", "MIC": "16 to 64 µg/mL"}
{"molecule": "C[C@@H](O)[C@H](NC(=O)c1ccc(C2CCN(c3ccc(CN4CCOCC4)cc3)CC2)cc1)C(=O)NO [Example 41-5]", "MIC": "> 64 µg/mL"}
{"molecule": "C[C@@H](O)[C@H](NC(=O)c1ccc(/C=C/C#Cc2cccc(F)c2)cc1)C(=O)NO [Example 137-14]", "MIC": "16 to 64 µg/mL"}
